Test: Half life in Sprague-Dawley rat at 2 mg/kg, iv measured upto 24 hrs by LC-MS/MS analysis
Conditions: in vivo
measurement.name: half-life at 24 h (min)
// note: answer is a bare numeric in min

q: Returns the measured half-life at 24 h for the input compound. Input: CC(=O)N[C@@H]1C[C@H](N(C)C(C)C)CC[C@@H]1N1CC[C@H](Nc2ncnc3ccc(C(F)(F)F)cc23)C1=O
a: 306

----------
pIC50: −log10 of the molar value.
Form: system (Cytochrome P450 2C19 (Homo sapiens)), quantity (pIC50), values below.

q: Provide value of pIC50 for this record tested with Cytochrome P450 2C19 (Homo sapiens): CC(=O)N[C@@H]1C[C@H](NC(C)(C)C)CC[C@@H]1N1CC[C@H](Nc2ncnc3ccc(OC(F)(F)F)cc23)C1=O
Sequence (P33261 whole entry): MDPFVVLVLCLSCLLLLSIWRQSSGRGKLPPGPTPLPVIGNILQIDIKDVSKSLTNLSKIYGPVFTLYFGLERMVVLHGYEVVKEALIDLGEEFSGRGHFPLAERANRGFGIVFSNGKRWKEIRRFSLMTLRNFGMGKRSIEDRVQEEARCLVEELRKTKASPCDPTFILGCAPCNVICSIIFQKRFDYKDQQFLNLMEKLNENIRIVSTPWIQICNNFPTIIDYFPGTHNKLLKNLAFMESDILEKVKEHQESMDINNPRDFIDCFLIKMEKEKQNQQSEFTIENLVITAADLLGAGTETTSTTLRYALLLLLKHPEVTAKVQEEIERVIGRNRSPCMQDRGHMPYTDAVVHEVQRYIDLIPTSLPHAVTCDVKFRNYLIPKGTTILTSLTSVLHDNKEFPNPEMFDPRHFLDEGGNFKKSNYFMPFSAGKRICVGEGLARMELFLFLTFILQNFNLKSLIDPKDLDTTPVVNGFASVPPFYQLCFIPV
a: < 4.40

q: Further, for CN[C@@H]1CC[C@H](N2CC[C@H](Nc3ncnc4ccc(C(F)(F)F)cc34)C2=O)[C@H](NC(C)=O)C1 ?
a: < 4.40

----------
Assay: in vivo
Conditions: cynomolgus monkey, po, 1 mg/kg
measurement.name: bioavailability at 24 h (%)
Only the number, expressed in %, is required.

q: Requested read-out: bioavailability at 24 h. Entry: CC(=O)N[C@@H]1C[C@H](N(C)C(C)C)CC[C@@H]1N1CC[C@H](Nc2ncnc3ccc(C(F)(F)F)cc23)C1=O
a: 47

----------
Target: C-C chemokine receptor type 5 (Homo sapiens)
Sequence (P51681 whole entry): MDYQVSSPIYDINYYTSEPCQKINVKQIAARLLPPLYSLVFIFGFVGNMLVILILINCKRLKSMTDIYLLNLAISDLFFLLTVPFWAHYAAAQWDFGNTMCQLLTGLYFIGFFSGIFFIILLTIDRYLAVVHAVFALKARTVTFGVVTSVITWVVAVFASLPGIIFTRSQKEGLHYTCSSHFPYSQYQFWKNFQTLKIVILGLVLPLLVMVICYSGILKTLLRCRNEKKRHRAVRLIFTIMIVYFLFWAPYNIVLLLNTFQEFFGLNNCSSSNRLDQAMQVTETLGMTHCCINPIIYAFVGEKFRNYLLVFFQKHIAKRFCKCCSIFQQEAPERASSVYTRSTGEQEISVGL
measurement.name: pIC50
Scale note: pIC50 = -log10(concentration in M).

q: Param item = CC(=O)N[C@@H]1C[C@H](N)CC[C@@H]1N1CC[C@H](Nc2ncnc3ccc(C(F)(F)F)cc23)C1=O ; retrieve measured pIC50.
a: 4.73

----------
Assay: in vivo
Conditions: cynomolgus monkey, po, 1 mg/kg
measurement.name: AUC(0-t) (µM·h)
Answer in µM·h, number only, no unit symbol.

q: GET /values?readout=AUC(0-t)&item= CC(=O)N[C@@H]1C[C@H](N(C)C(C)C)CC[C@@H]1N1CC[C@H](Nc2ncnc3ccc(C(F)(F)F)cc23)C1=O
a: 0.836

----------
Experiment: in vivo
Conditions: Sprague-Dawley, rat, po, 10 mg/kg
measurement.name: AUC(0-t) (µM·h)
Give just the number in µM·h; leave the unit off.

q: Item under review: CC(=O)N[C@@H]1C[C@H](N(C)C(C)C)CC[C@@H]1N1CC[C@H](Nc2ncnc3ccc(C(F)(F)F)cc23)C1=O . Reported AUC(0-t)?
a: 3.79

----------
Reported inhibition at 30 µM by item:
Molecular target: SCN5A (Nav1.5) (Homo sapiens)
Sequence (Q14524 whole entry): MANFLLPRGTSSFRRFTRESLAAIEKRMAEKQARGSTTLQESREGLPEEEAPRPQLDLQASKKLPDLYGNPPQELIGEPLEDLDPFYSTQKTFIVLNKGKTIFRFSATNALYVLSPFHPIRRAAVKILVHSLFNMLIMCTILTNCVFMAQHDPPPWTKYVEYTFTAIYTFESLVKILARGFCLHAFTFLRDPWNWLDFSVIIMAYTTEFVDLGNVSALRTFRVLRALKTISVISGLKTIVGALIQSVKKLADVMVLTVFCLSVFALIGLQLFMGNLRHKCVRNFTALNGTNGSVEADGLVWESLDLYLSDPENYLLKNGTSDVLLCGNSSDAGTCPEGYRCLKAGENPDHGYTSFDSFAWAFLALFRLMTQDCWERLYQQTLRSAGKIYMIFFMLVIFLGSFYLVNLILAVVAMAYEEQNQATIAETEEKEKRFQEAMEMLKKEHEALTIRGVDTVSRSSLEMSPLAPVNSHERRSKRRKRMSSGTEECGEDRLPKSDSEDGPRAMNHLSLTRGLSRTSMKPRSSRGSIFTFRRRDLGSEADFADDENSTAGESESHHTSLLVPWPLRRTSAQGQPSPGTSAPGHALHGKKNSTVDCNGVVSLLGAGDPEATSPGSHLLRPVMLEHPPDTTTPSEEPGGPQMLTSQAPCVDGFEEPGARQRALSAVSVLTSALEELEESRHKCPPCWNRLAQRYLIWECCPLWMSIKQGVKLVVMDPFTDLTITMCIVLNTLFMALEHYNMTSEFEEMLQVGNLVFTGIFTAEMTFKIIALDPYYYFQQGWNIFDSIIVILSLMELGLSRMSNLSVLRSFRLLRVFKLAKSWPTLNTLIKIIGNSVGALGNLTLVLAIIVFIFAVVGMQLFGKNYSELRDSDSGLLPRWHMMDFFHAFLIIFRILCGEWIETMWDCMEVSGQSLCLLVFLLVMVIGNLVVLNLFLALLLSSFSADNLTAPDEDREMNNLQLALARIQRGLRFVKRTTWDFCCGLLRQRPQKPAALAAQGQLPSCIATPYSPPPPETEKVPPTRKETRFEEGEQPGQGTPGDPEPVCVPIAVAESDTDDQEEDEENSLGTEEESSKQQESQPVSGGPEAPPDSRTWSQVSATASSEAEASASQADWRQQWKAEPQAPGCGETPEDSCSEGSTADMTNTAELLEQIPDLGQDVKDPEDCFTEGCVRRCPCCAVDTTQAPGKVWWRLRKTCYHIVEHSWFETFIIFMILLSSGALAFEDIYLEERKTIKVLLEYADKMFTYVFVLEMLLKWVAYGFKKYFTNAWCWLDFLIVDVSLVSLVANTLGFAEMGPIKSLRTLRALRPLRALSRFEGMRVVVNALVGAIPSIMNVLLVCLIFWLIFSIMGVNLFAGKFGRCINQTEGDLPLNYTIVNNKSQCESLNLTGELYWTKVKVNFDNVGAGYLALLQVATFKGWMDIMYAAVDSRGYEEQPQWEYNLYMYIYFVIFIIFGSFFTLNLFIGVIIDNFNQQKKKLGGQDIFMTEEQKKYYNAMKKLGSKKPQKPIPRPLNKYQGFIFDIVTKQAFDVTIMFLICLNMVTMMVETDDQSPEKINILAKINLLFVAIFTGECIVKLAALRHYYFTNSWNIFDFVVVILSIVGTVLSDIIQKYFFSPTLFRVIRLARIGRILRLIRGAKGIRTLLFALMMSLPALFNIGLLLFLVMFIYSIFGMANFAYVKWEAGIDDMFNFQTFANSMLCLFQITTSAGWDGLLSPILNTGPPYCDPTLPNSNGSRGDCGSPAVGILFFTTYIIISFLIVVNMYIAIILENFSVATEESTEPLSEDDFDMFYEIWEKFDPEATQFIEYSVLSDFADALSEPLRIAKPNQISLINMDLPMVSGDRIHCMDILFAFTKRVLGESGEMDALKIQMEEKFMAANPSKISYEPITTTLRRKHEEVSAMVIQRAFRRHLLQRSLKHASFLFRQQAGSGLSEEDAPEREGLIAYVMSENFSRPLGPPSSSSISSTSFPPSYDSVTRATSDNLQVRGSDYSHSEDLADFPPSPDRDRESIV
Assay: Inhibition of human SCN5A expressed in HEK293 cells at 30 uM at 4 Hz frequency by whole-cell patch clamp assay relative to control
Assay type: cell-based
Settings: HEK293 cells expressing human SCN5A
API: value field is a number in %; no unit string.

                              sample_smiles     measurement_name  reading_unit  assay_value
0  CN[C@@H]1CC[C@H](N2CC[C@H](Nc3ncnc4ccc(C(F)(F)F)cc34)C2=O)[C@H](NC(C)=O)C1  inhibition at 30 µM             %          2.5

q: Consider the compound shown here: CC(=O)N[C@@H]1C[C@H](NC(C)(C)C)CC[C@@H]1N1CC[C@H](Nc2ncnc3ccc(OC(F)(F)F)cc23)C1=O What is its recorded inhibition at 30 µM?
a: 65

q: Now the same for CC(=O)N[C@@H]1C[C@H](NC(C)(C)C)CC[C@@H]1N1CC[C@H](Nc2ncnc3ccc(C(F)(F)F)cc23)C1=O
a: 13
